molecular target: Follistatin (Homo sapiens); assay: follistatin binders on small-molecule microarrays, primary screen, biochemical, small-molecule microarray, 635/667 nm fluorescence (AID 1132); conditions: FST binding, 635 nm fluorescence, higher = more signal
Outcome label depends on composite z-score relative to 0.8: at/above gives class 1, below gives class 0.

Would you please look over these solved cases?
{"columns": ["compound", "class.label"],
 "data": [
  ["COc1ccc(C(O)C2C=CC3C(=O)N(C)C(=O)C3N2Nc2ccc([N+](=O)[O-])cc2[N+](=O)[O-])cc1OCc1ccccc1 (stereo not drawn)", "class 0"],
  ["CCCC[C@@H]1C[C@H]1[C@@H](NC(=O)Cc1ccccc1)c1ccc(Cl)cc1", "class 1"],
  ["COc1cc2c(cc1O)C(c1ccc(CN3CCCC3)cc1)N(Cc1cccc(OC(F)(F)F)c1)CC2 (stereo not drawn)", "class 1"],
  ["CCCCC(=C=CC[C@@H](O)c1cccc(OCCO)c1)C[C@@H](O)COCc1ccccc1", "class 0"],
  ["O=C1C2C=CC(C(O)c3ccc([N+](=O)[O-])cc3)N(Nc3ccccc3)C2C(=O)N1c1ccccc1 (stereo not drawn)", "class 0"]
]}

q: Quick check: does C=CC(CO)NC(=O)OCC1c2ccccc2-c2ccccc21 (stereo not drawn) have composite z-score greater than or equal to 0.8?
a: class 0

q: Record CC(C)C[C@H]1NC(=O)[C@H](Cc2ccccc2)NC(=O)[C@@]23C(=O)N[C@@H](Cc4ccccc4)C2[C@H](C)[C@@]2(C)O[C@H]2C3/C=C/C/C=C\CNC1=O (stereo partly drawn) ; criterion: composite z-score no lower than 0.8. Met?
a: class 1

q: Threshold query (composite z-score >= 0.8) on COCCCNC(=O)[C@@H]1c2ccccc2C(=O)N(Cc2cc(C(F)(F)F)cc(C(F)(F)F)c2)[C@H]1c1ccc(CO)cc1
a: class 0
